Tested on: pigweed (Amaranthus retroflexus)
Assay: Test A postemergence
Assay type: in vivo
Settings: Amaranthus retroflexus, post-emergence, 240 h, 500 g ai/ha, postemergence; 0 to 100 scale, 0 is no effect, 100 is complete control; read-out: Pigweed plant response rating
Reported pest or weed control at 500 g/ha values for the following compounds.
Param answer (str): number followed by unit.

Quick note, pest or weed control at 500 g/ha for "Cc1ccc([C@H]2CCN(C)C(=O)[C@@H]2C(=O)Nc2cccc(Cl)c2F)cc1" landed at 0%

Quick note, pest or weed control at 500 g/ha for "N#Cc1cc([C@H]2CNC(=O)[C@@H]2C(=O)Nc2ccccc2F)ccc1F" landed at 20%

----------
Tested on: redroot pigweed (Amaranthus retroflexus)
Test: Test G Post-Emergence Protocol
Type: in vivo
Details: Amaranthus retroflexus, post-emergence, 312 h, 250 g ai/ha, evaluated after 13 days, read-out: damage to plant, Pigweed, Redroot (100=total damage to plant; 0=no damage to plant)
experimental endpoint: pest or weed control at 250 g/ha (%)
Report as a plain number; the unit % is understood.

Solved entries (count: 3):
{"molecule": "CN1C[C@@H](c2ccc(C(F)(F)F)cc2)[C@H](C(=O)Nc2ccc(Cl)cc2F)C1=O (racemic) [Compound 1602]", "measurement target": "redroot pigweed (Amaranthus retroflexus)", "pest or weed control at 250 g/ha, %": 70}
{"molecule": "CN1C[C@@H](c2ccc(C(F)(F)F)cc2)[C@H](C(=O)Nc2ccon2)C1=O (racemic) [Compound 1506]", "measurement target": "redroot pigweed (Amaranthus retroflexus)", "pest or weed control at 250 g/ha, %": 0}
{"molecule": "COc1c(Cl)ccc([C@H]2CNC(=O)[C@@H]2C(=O)Nc2cccc(F)c2F)c1F (racemic) [Compound 1472]", "measurement target": "redroot pigweed (Amaranthus retroflexus)", "pest or weed control at 250 g/ha, %": 10}

Quick note, pest or weed control at 250 g/ha for CN1C[C@@H](c2ccc(C(F)(F)F)cc2)[C@H](C(=O)Nc2cc(Cl)nc(Cl)c2)C1=O (racemic) [Compound 1519] landed at 0

Quick note, pest or weed control at 250 g/ha for CN1C[C@@H](c2ccc(C(F)(F)F)cc2)[C@H](C(=O)Nc2ncc(Cl)s2)C1=O (racemic) [Compound 1569] landed at 0

Quick note, pest or weed control at 250 g/ha for CN1C[C@H](c2ccc(C(F)(F)F)cc2)[C@@H](C(=O)Nc2cccc(F)n2)C1=O (racemic) [Compound 1428] landed at 40

Quick note, pest or weed control at 250 g/ha for CC(C)c1cc(NC(=O)[C@@H]2C(=O)N(C)C[C@H]2c2ccc(C(F)(F)F)cc2)[nH]n1 (racemic) [Compound 1522] landed at 0

----------
Reported pest or weed control at 500 g/ha values for the following compounds.
Tested on: ragweed (common ragweed, Ambrosia elatior)
Assay: Test A postemergence
Assay type: in vivo
Settings: Ambrosia artemisiifolia, post-emergence, 240 h, 500 g ai/ha, postemergence; visual injury, 0 to 100 scale (0 no effect, 100 complete control), approx. 10 d; read-out: Plant response rating, Ragweed
Param answer (str): number followed by unit.

{"compound": "Cc1ccc([C@H]2CNC(=O)[C@@H]2C(=O)Nc2cccc(F)c2F)cc1C [Compound 1034]", "endpoint result": "40%"}
{"compound": "Cc1ccc([C@H]2CN(C)C(=O)[C@@H]2C(=O)Nc2cccc(F)c2F)cc1Cl [Compound 1013]", "endpoint result": "40%"}
{"compound": "O=C1NC[C@H](c2ccc3c(c2)OCO3)[C@H]1C(=O)Nc1ccc(F)c(F)c1F [Compound 1027]", "endpoint result": "0%"}

Moving on to the next compound.
Quick note, pest or weed control at 500 g/ha for CN1CC[C@H](c2ccccc2)[C@@H](C(=O)Nc2ccccc2F)C1=O [Compound 1032] landed at 0%

----------
Tested on: morningglory (Ipomoea coccinea)
Assay: Test C preemergence
Format: in vivo
Details: 62 g ai/ha, scale 0 to 100, 0 no effect, 100 complete control
experimental endpoint: Plant response rating, Morningglory
Please respond with just the number, no unit label.

Solved entries (count: 6):
{"compound": "CC(C)Oc1cccc(C2CN(C)C(=O)C2C(=O)Nc2cccc(F)c2F)c1 (stereo not shown) [Compound 651]", "Plant response rating, Morningglory": 0}
{"compound": "Cc1ccc(C2CN(C)C(=O)C2C(=O)Nc2ccccc2C(F)(F)F)cc1 (stereo not shown) [Compound 665]", "Plant response rating, Morningglory": 15}
{"compound": "CN1CC(c2ccc(C(F)(F)F)c(F)c2)C(C(=O)Nc2ccccc2F)C1=O (stereo not shown) [Compound 399]", "Plant response rating, Morningglory": 40}
{"compound": "CN1CC(c2ccc(F)c(F)c2)C(C(=O)Nc2ccccc2S(C)(=O)=O)C1=O (stereo not shown) [Compound 640]", "Plant response rating, Morningglory": 0}
{"compound": "O=C1NCC(c2cccc(C(F)(F)F)c2F)C1C(=O)Nc1cccc(F)c1F (stereo not shown) [Compound 591]", "Plant response rating, Morningglory": 30}
{"compound": "CN1CC(c2cccc(OC(F)F)c2)C(C(=O)Nc2ccccc2S(C)(=O)=O)C1=O (stereo not shown) [Compound 523]", "Plant response rating, Morningglory": 35}

Moving on to the next compound.
Quick note, Plant response rating, Morningglory for CC(C)Oc1cccc(C2CN(C)C(=O)C2C(=O)Nc2ccccc2S(C)(=O)=O)c1 (stereo not shown) [Compound 653] landed at 0

----------
Tested on: crabgrass, large (large crabgrass, Digitaria sanguinalis)
Experiment: Test C preemergence
Assay type: in vivo
Conditions: 62 g ai/ha, scale 0 to 100, 0 no effect, 100 complete control
Reported Plant response rating, Crabgrass, Large values for the following compounds.

Solved entries (count: 5):
{"compound": "CN1CC(c2ccc(F)c(F)c2)C(C(=O)Nc2ccccc2S(C)(=O)=O)C1=O (stereo not drawn)", "endpoint result": 100}
{"compound": "O=C1NCC(c2cccc(C(F)(F)F)c2F)C1C(=O)Nc1cccc(F)c1F (stereo not drawn)", "endpoint result": 90}
{"compound": "CN1CC(c2ccc(C(F)(F)F)c(F)c2)C(C(=O)Nc2ccccc2F)C1=O (stereo not drawn)", "endpoint result": 98}
{"compound": "CN1CC(c2ccc(C(F)(F)F)c(F)c2)C(C(=O)Nc2cccc(F)c2F)C1=O (stereo not drawn)", "endpoint result": 98}
{"compound": "CN1CC(c2cccc(OC(F)F)c2)C(C(=O)Nc2ccc(F)cc2F)C1=O (stereo not drawn)", "endpoint result": 95}

Quick note, Plant response rating, Crabgrass, Large for CN1CC(c2ccc(F)c(C(F)(F)F)c2)C(C(=O)Nc2ccccc2S(C)(=O)=O)C1=O (stereo not drawn) landed at 95

----------
Reported pest or weed control at 250 g/ha values for the following molecules.
Tested on: ivy-leaved morning glory (Ipomoea hederacea)
Assay: Test G Post-Emergence Protocol
Assay type: in vivo
Conditions: Ipomoea, post-emergence, 312 h, 250 g ai/ha, evaluated after 13 days, read-out: damage to plant, Morningglory, Ivy-leaved (100=total damage to plant; 0=no damage to plant)
Report as a plain number; the unit % is understood.

{"molecule": "CN1C[C@@H](c2ccc(C(F)(F)F)cc2)[C@H](C(=O)Nc2ncc(C(F)(F)F)s2)C1=O (racemic)", "pest or weed control at 250 g/ha / %": 0}
{"molecule": "CN1C[C@@H](c2ccc(C(F)(F)F)cc2)[C@H](C(=O)Nc2cc(C(F)(F)F)no2)C1=O (racemic)", "pest or weed control at 250 g/ha / %": 0}
{"molecule": "CN1C[C@H](c2ccc(Cl)cc2)[C@@H](C(=O)Nc2cccc(F)n2)C1=O", "pest or weed control at 250 g/ha / %": 70}
{"molecule": "Cc1c(Cl)ncnc1NC(=O)[C@@H]1C(=O)N(C)C[C@H]1c1ccc(C(F)(F)F)cc1 (racemic)", "pest or weed control at 250 g/ha / %": 0}

Quick note, pest or weed control at 250 g/ha for CN1C[C@@H](c2cncc(F)c2)[C@H](C(=O)Nc2cccc(F)c2F)C1=O (racemic) landed at 0

Quick note, pest or weed control at 250 g/ha for CN1C[C@@H](c2ccc(C(F)(F)F)cc2)[C@H](C(=O)Nc2cccc(C(F)(F)F)n2)C1=O (racemic) landed at 0

Quick note, pest or weed control at 250 g/ha for CN1C[C@@H](c2ccc(C(F)(F)F)cc2)[C@H](C(=O)Nc2nccc(C(F)(F)F)n2)C1=O (racemic) landed at 0

Quick note, pest or weed control at 250 g/ha for CN1C[C@@H](c2ccc(C(F)(F)F)cc2)[C@H](C(=O)Nc2ncc(Cl)s2)C1=O (racemic) landed at 0

Quick note, pest or weed control at 250 g/ha for CN1C[C@H](c2ccc(C(F)(F)F)cc2)[C@@H](C(=O)Nc2cccc3nsnc23)C1=O (racemic) landed at 0

Quick note, pest or weed control at 250 g/ha for CN1C[C@@H](c2ccc(C(F)(F)F)cc2)[C@H](C(=O)Nc2ncc[nH]2)C1=O (racemic) landed at 0

Quick note, pest or weed control at 250 g/ha for CN1C[C@H](c2ccc(C(F)(F)F)cc2)[C@@H](C(=O)Nc2ncc(F)cc2F)C1=O (racemic) landed at 10

Quick note, pest or weed control at 250 g/ha for CN1C[C@@H](c2ccc(C(F)(F)F)cc2)[C@H](C(=O)Nc2cc(O)nc(C(F)(F)F)n2)C1=O (racemic) landed at 0

Quick note, pest or weed control at 250 g/ha for Cc1nonc1NC(=O)[C@@H]1C(=O)N(C)C[C@H]1c1ccc(C(F)(F)F)cc1 (racemic) landed at 0

Quick note, pest or weed control at 250 g/ha for COc1cc([C@@H]2CN(C)C(=O)[C@H]2C(=O)Nc2cccc(F)c2F)ccc1Cl (racemic) landed at 50

Quick note, pest or weed control at 250 g/ha for Cc1c(Cl)cccc1NC(=O)[C@@H]1C(=O)N(C)C[C@H]1c1ccc(C(F)(F)F)cc1 (racemic) landed at 60

Quick note, pest or weed control at 250 g/ha for CCc1nccc(NC(=O)[C@@H]2C(=O)N(C)C[C@H]2c2ccc(C(F)(F)F)cc2)c1Cl (racemic) landed at 0

Quick note, pest or weed control at 250 g/ha for CN1C[C@H](c2ccc(C(F)(F)F)cc2)[C@@H](C(=O)Nc2cnccc2O)C1=O (racemic) landed at 10

Quick note, pest or weed control at 250 g/ha for Cc1ccc(NC(=O)[C@H]2C(=O)N(C)C[C@@H]2c2ccc(C(F)(F)F)cc2)c(C)c1 (racemic) landed at 20

Quick note, pest or weed control at 250 g/ha for CN1C[C@H](c2cccc3c2OC(F)(F)O3)[C@@H](C(=O)Nc2ccccc2F)C1=O (racemic) landed at 20
